property: melting point

Guide cases for melting point, answers given:
Req: // lookup melting point for CC(=O)NCCC1CCc2ccn3ncc(C)c3c21 (centres unmarked)
Resp: 121 to 122 °C

Req: Okay, and CCC(=O)NCCC1CCc2ccn3nccc3c21 (centres unmarked) ?
Resp: 72 to 73 °C

Req: What do you get for CC(=O)NCCC1CCc2ccn3nccc3c21 (centres unmarked) ?
Resp: 100 to 101 °C

Req: Try "CC(=O)NCC[C@@H]1CCc2ccc3nn(C)c(Cl)c3c21" next.
Resp: 168 to 171 °C

Req: What do you have for "CC(=O)NCC[C@@H]1CCc2ccc3nn(C)c(F)c3c21" ?
Resp: 155 to 156 °C

Req: Also check "CC(=O)NCC=C1CCc2c(Cl)cc3nn(C)cc3c21"
Resp: 177 to 178 °C

Req: And CC(=O)NCCC1CCc2ccc3nn(C)c(C)c3c21 (centres unmarked) ?
Resp: 146 to 149 °C

Req: Now the same for "CC(=O)NCC=C1CCc2ccc3nn(C)c(C)c3c21"
Resp: 200 to 203 °C

New cases:
Req: Quick one: melting point for "CC(=O)NCC=C1CCc2ccc3nn(C)cc3c21" ?
Resp: 200 to 202 °C

Req: What about CCC(=O)NCCC1CCc2c(F)cc3nn(C)cc3c21 (centres unmarked) ?
Resp: 117 to 119 °C

Req: Proceed to CC(=O)NCCC1CCc2c(F)cc3nn(C)cc3c21 (centres unmarked)
Resp: 116 to 119 °C

Req: Another compound to check: Cc1cc2c3c(ccn2n1)CCC3CCNC(=O)C1CC1 (centres unmarked)
Resp: 112 to 113 °C

---

Parameter melting point: see the listing below.

Req: Any idea what melting point was measured for CC(=O)NCCC1CCc2c(Cl)cc3nn(C)cc3c21 (centres unmarked) ?
Resp: 143 to 144 °C

Req: Now the same for CCOC(=O)c1c(C)nn2ccc3c(c12)C(CCNC(C)=O)CC3 (centres unmarked)
Resp: 101 to 103 °C

Req: Follow-up item: CC(=O)NCCC1CCc2ccn3nc(C)c(C)c3c21 (centres unmarked)
Resp: 134 to 135 °C

Req: Input CC(=O)NCCC1CCc2ccn3nc(-c4ccccc4)cc3c21 (centres unmarked)
Resp: 159 to 160 °C

Further cases:
Req: Give the measured melting point of "CCC(=O)NCC=C1CCc2ccc3nn(C)cc3c21" .
Resp: 185 to 187 °C

Cited source for all entries: patent US8247429B2
